- Test system: PRMT1 (protein arginine N-methyltransferase 1)
- assayDetails: PRMT1 binders on small-molecule microarrays, primary screen, biochemical, small-molecule microarray, 635 nm fluorescence (AID 1088)
- protocolConditions: small-molecule microarray binding, higher = more signal
Provide the recorded composite z-score for the entries that follow.
Give bare numbers.

compound=COc1ccc(C(=O)Nc2ccc(CN3C(=O)[C@@]4(O[C@@H](CCn5cc([C@H](O)c6ccccc6)nn5)[C@H]([Si](C)(C)c5ccc(OC)cc5)[C@H]4C)c4ccccc43)cc2)cc1 testsystem="PRMT1 (protein arginine N-methyltransferase 1)" quantitykind="composite z-score" measured=1.46
compound=C=CC[C@]1(C(=O)NCCCOC)N=C(c2ccc(OCCCO)cc2)O[C@H]1c1ccccc1N=[N+]=[N-] testsystem="PRMT1 (protein arginine N-methyltransferase 1)" quantitykind="composite z-score" measured=1.55
compound=CC[C@@H]1C=C(C(=O)O)[C@H](c2ccco2)N1S(=O)(=O)c1ccc(C)cc1 testsystem="PRMT1 (protein arginine N-methyltransferase 1)" quantitykind="composite z-score" measured=0.475

Consider the following items and state reported composite z-score for each.
1. COC(=O)[C@@]1(Cc2ccc(OC)cc2)[C@H]2c3cc(C(=O)N(C)C)n(CCN4CNCC4=O)c3C[C@H]2CN1C(=O)c1ccccc1
2. COc1ccc([Si](C)(C)[C@@H]2[C@@H](CC(=O)N3Cc4ccccc4C[C@H]3CO)O[C@]3(C(=O)N(C)c4c(Br)cc(C)cc43)[C@H]2C)cc1
3. CCCCCCC#C[Si](O[C@H](c1ccccc1)c1cn([C@H](CO)Cc2ccccc2)nn1)(C(C)C)C(C)C
4. COc1ccc(CCNC(=O)[C@@]2(C)c3ccccc3C(=O)N(Cc3cc(F)cc(C(F)(F)F)c3)[C@H]2c2ccc(CO)cc2)cc1
5. Cc1ccc(S[C@]2(C(=O)NCC(C)C)CC(=O)N(Cc3cc(C(F)(F)F)cc(C(F)(F)F)c3)[C@@H]2c2ccc(CO)cc2I)cc1
6. COCCOC(=O)N1C(=O)[C@@]2(c3cc(C#CC4=CCCCC4)ccc31)[C@H](C(=O)Nc1nc3ccccc3s1)[C@H]1C(=O)O[C@H](c3ccccc3)[C@H](c3ccccc3)N1[C@@H]2c1ccc(OCCO)cc1
7. C=C(COC)/C(=C/C[C@@H](OC(C)=O)c1ccc(OCCO)cc1)c1cc(C(=O)OC)ccc1OC

1: -1.13; 2: 1.54; 3: 1.55; 4: 0.117; 5: 0.714; 6: 1.58; 7: 1.54

Consider the following items and state reported composite z-score for each.
1. CC1CC/C=C\[C@H]2OC34C=CCN(Cn5nnc6ccccc65)C(=O)[C@H]3N(C(CO)C(C)C)C(=O)[C@@H]4C2C(=O)O1 (some centres undefined)
2. COc1ccc(CCN2C(=O)[C@@]3(c4ccc([N+](=O)[O-])cc4)CC(=O)N(C4CCCCC4)[C@@H]3c3ccc(CO)cc32)cc1
3. C=CC[C@@]1(C(=O)NCc2ccccc2)N=C(c2ccc(OCCCO)cc2)O[C@@H]1c1ccccc1N=[N+]=[N-]
4. O=C1O[C@@H](c2ccccc2)[C@@H](c2ccccc2)N2[C@@H](c3ccccc3OCCO)[C@]3(C(=O)Nc4ccc(C#CC5=CCCCC5)cc43)[C@@H](C(=O)Nc3nc4ccccc4s3)[C@H]12

1. 1.34
2. 1.09
3. 1.54
4. 1.56

src = PubChem BioAssay
